system: 786-0 renal; assay: NCI tumour cell line growth inhibition, 48 h
Can you tell me TGI for the items I'm about to list?

# annotated cases, reported TGI shown
compound	measured target	assay result
NC(=O)C(=CNC(N)=S)C(N)=O	786-0 renal	> 100 µM
C=CCc1cc(OC)c2c(c1)C(O)CC(c1ccc(OC)c(OC)c1)O2 (centres undefined)	786-0 renal	> 100 µM
O=C1C2=C(SCCS2)C(=O)c2ccccc21	786-0 renal	3.12 µM

// each listed compound needs a value for TGI
1. CC(C)(C)c1cc(C(=O)/C=C/c2c(Cl)cccc2Cl)cc(C(C)(C)C)c1O
2. CCOC(=O)Nc1nc2ccc(OCC)cc2s1
3. O=C(N/C(=C\c1cc(Cl)ccc1Cl)c1nc2[nH]c(=S)[nH]c(=O)c2[nH]1)c1ccccc1
4. C[N+](C)(CCCn1ccnc1[N+](=O)[O-])CCCn1ccnc1[N+](=O)[O-]
5. C=C(C)[C@@H]1CCC2=C[C@@H](OC2=O)[C@@H](C(=C)C)C2=CC(C(=O)O)=C(C1)O2
6. S=C1NCCN1

Data returned:
1: 29.7 µM; 2: > 100 µM; 3: 32.2 µM; 4: > 100 µM; 5: > 100 µM; 6: > 100 µM

// each listed compound needs a value for TGI
1. Cn1ccnc1C(=O)/C=C/c1ccc(CC(=O)Nc2ccc(Br)cc2)cc1
2. CCN(CC)c1ccc2cc(C(N)=O)c(=N)oc2c1
3. CCN(CC)CC(C(=O)Nc1c(C)cccc1C)/C(C)=N\NC(=O)C[N+](C)(C)C (centres undefined)
4. N#CC(C#N)=C1C(=Cc2ccc(OCCCCCCCCCCSSCCCCCCCCCCOc3ccc(C=C4C(=C(C#N)C#N)c5ccccc5C4=C(C#N)C#N)cc3)cc2)C(=C(C#N)C#N)c2ccccc21
5. CCOC(=O)c1ncn2c1[nH]c(=S)c1ccccc12

Data returned:
["5.92 µM", "> 100 µM", "> 100 µM", "41.7 µM", "> 100 µM"]

// each listed compound needs a value for TGI
1. CO[C@]1(c2ccc([N+](=O)[O-])cc2)Oc2ccccc2C(=O)[C@@]1(Nc1ccc(C=O)cc1)OC
2. CC1=C(C(=O)Nc2ccc(F)c(Cl)c2)C(c2ccc(Cl)cc2)NC(=O)N1 (centres undefined)
3. Cc1cnc(NC(=O)C(Cc2ccccc2)NC(=O)c2ccccc2)s1 (centres undefined)
4. C[C@@H](CS(C)(=O)=O)Nc1ncc2cc(Oc3ccc(F)cc3F)c(=O)n(C)c2n1
5. C=CCC1(O)CC(n2cc(C)c(=O)[nH]c2=O)OC1CO[Si](C)(C)C(C)(C)C (centres undefined)
6. Nc1cc2nc3ccccc3sc-2cc1=O
7. COc1ccccc1CCN1CCN(CCCc2ccccc2)CC1
8. Cc1cc(=O)n2[nH]c(-c3ccc(C(C)(C)C)cc3)cc2n1

Data returned:
1. > 10 µM
2. 31.7 µM
3. 76.2 µM
4. > 25 µM
5. > 100 µM
6. 14.5 µM
7. > 100 µM
8. > 100 µM

// each listed compound needs a value for TGI
1. CN(Cc1cnc2nc(N)nc(N)c2n1)c1ccc(C(=O)NCCS(=O)(=O)O)cc1
2. CC(=O)NC1=C(NCC(C)(C)C)C(=O)c2ccccc2C1=O
3. O=C1c2ccccc2C(=O)c2sc(Nc3cccc(Cl)c3)nc21
4. CCCCS(=O)(=O)CCC(N)P(=O)(O)O (centres undefined)
5. COc1cc(-c2ccc(Br)[nH]2)[nH]c1C=NCC(C)C

Data returned:
> 100 µM
> 100 µM
3.74 µM
> 100 µM
3.27 µM

// each listed compound needs a value for TGI
1. O=C1N(Cl)C(=O)C(c2ccc(Cl)cc2)(c2ccc(Cl)cc2)N1Cl
2. CCOC(=O)C1=C(C)CC2C(=O)OC(=O)C2C1(C)C (centres undefined)

Data returned:
1: > 100 µM; 2: > 100 µM

====

system: SF-539 CNS; experiment: NCI tumour cell line growth inhibition, 48 h
experimental readout: TGI

# annotated cases, reported TGI shown
molecule	TGI
NC(CCCCCCCCCCP(=O)(O)O)C(=O)O (stereo not drawn)	> 100 µM
O=C(N/C(=C\c1cc(Cl)ccc1Cl)c1nc2[nH]c(=S)[nH]c(=O)c2[nH]1)c1ccccc1	> 76.7 µM

Pending molecule:
Data request: Please state recorded TGI (tested on SF-539 CNS) of "CN(Cc1cnc2nc(N)nc(N)c2n1)c1ccc(C(=O)NCCS(=O)(=O)O)cc1"
Data returned: > 100 µM

====

test system: A549 NSCLC; experiment: NCI tumour cell line growth inhibition, 48 h
experimental readout: TGI

# annotated cases, reported TGI shown
compound	TGI
COc1cc(/C=C/c2cc(/C=C/c3ccc(O)c(OC)c3)n(C(=O)Nc3ccc(F)cc3)n2)ccc1O	18.3 µM
C[n+]1c2ccccc2c(NCC(=O)O)c2ccccc21	> 100 µM
NC1CCC(Nc2nc(NCc3ccc(-c4ccco4)nc3)c3ncn(C4CCCC4)c3n2)CC1 (stereo unspecified)	14.4 µM
O=C(C1OC1c1ccc(Cl)cc1)C12CC3CC(CC(C3)C1)C2 (stereo unspecified)	48.5 µM
COc1ccc(N2CN3OC(=O)N(c4ccc(OC)cc4)[C@@]3(c3ccccc3)C2)cc1	> 100 µM

// each listed compound needs a value for TGI
1. C/C=C/C(C#N)(/C=C/c1ccccc1)OP1(=O)OC(c2ccccc2)C(C)N1C (stereo unspecified)
2. NC(=O)c1ccc(C(=O)Nc2ccc([As](=O)(O)O)cc2)cc1
3. C[N+](C)(CCCn1ccnc1[N+](=O)[O-])CCCn1ccnc1[N+](=O)[O-]
4. NC(N)=N/N=C/c1c(-c2ccc(Cl)c([N+](=O)[O-])c2)nc2sc(Cl)cn12
5. O=C1NC(N/N=C/c2ccccc2)=N/C1=C\c1ccco1
6. O=c1c2cccnc2n2n1Cc1ccccc1C2
7. CC[C@@]12CCCN3CC[C@]4(c5cccc(OC)c5N(C(C)=O)[C@@H]4CC1)[C@H]32

Data returned:
["45.4 µM", "> 100 µM", "> 100 µM", "7 µM", "81.3 µM", "> 100 µM", "> 100 µM"]

// each listed compound needs a value for TGI
1. CO[C@]1(c2ccc([N+](=O)[O-])cc2)Oc2ccccc2C(=O)[C@@]1(Nc1ccc(C=O)cc1)OC
2. COc1cc2c(c(OC)c1O)-c1ccc(SC)c(=O)cc1C(NC(C)=O)CC2 (stereo unspecified)
3. COc1ccc2c(c1)C1(C=N2)CCN(C(C)=O)CC1
4. Cc1cc(=O)[nH]c(NNC(C#N)c2cccc(O)c2)n1 (stereo unspecified)

Data returned:
["> 10 µM", "> 100 µM", "> 100 µM", "> 100 µM"]

====

Can you tell me TGI for the items I'm about to list?
tested on: U251 CNS; assay: NCI tumour cell line growth inhibition, 48 h

// each listed compound needs a value for TGI
1. Cc1cccc2oc3c(CC(=O)O)cccc3c(=O)c12
2. COc1ccc2c(c1)C1(C=N2)CCN(C(C)=O)CC1
3. O=C1/C(=C/c2ccc([N+](=O)[O-])cc2)COc2ccc(O)c(O)c21
4. CSC1=C(C#N)C(=S)N=C(N)C1C(=O)Nc1ccc(C)cc1 (stereo unspecified)
5. C[N+](C)(CCCn1ccnc1[N+](=O)[O-])CCCn1ccnc1[N+](=O)[O-]
6. N#Cc1cccc2c1Sc1ccccc1N2
7. O=[S@@]1Nc2ccc(Br)cc2S1
8. CC(=O)NC1=C(NCC(C)(C)C)C(=O)c2ccccc2C1=O

Data returned:
["> 100 µM", "> 100 µM", "3.55 µM", "> 100 µM", "> 100 µM", "> 100 µM", "> 100 µM", "> 100 µM"]

// each listed compound needs a value for TGI
1. CC1OC(OC2C(O[C@H]3CC[C@@H]4C(=CC[C@@H]5[C@@]4(C)C(=O)C[C@]4(C)[C@@H]([C@H](C)CC[C@@H](O)C(C)(C)O)CC[C@@]54C)C3(C)C)OC(CO)C(O)C2O)C(O)C(O)C1O (stereo partly specified)
2. O=C(N/C(=C\c1cc(Cl)ccc1Cl)c1nc2[nH]c(=S)[nH]c(=O)c2[nH]1)c1ccccc1

Data returned:
1: > 100 µM; 2: > 76.1 µM

Data request: Please state recorded TGI (tested on U251 CNS) of "O=C(CCl)N1c2ccccc2Oc2ccc3ccccc3c21"
Data returned: 2.7 µM

====

system: HCC-2998 colon; assay: NCI tumour cell line growth inhibition, 48 h
experimental readout: TGI

compound	TGI
C=C(C)[C@@H]1CCC2=C[C@@H](OC2=O)[C@@H](C(=C)C)C2=CC(C(=O)O)=C(C1)O2	> 100 µM
CCOC(=O)C1=C(C)CC2C(=O)OC(=O)C2C1(C)C (configuration not stated)	> 100 µM
CCOC(=O)Nc1nc2ccc(OCC)cc2s1	> 100 µM
CCCCCCNC(=O)C(C)C1CCC2(C)C=CC(=O)C(C)=C2C1O (configuration not stated)	> 100 µM
CC1=C(C(=O)Nc2ccccc2C)C(c2ccco2)C(C(=O)Nc2ccccc2C)=C(C)N1C	> 100 µM

// each listed compound needs a value for TGI
1. NC(N)=N/N=C/c1c(-c2ccc(Cl)c([N+](=O)[O-])c2)nc2sc(Cl)cn12
2. O=c1cc(-c2cccc(O)c2)[nH]c2cc3c(cc12)OCO3

Data returned:
1: > 100 µM; 2: > 100 µM
